- TESTED ON: RSK3 (Homo sapiens)
- Construct: purchased Carna Biosciences
- Sequence (Q15349 whole entry): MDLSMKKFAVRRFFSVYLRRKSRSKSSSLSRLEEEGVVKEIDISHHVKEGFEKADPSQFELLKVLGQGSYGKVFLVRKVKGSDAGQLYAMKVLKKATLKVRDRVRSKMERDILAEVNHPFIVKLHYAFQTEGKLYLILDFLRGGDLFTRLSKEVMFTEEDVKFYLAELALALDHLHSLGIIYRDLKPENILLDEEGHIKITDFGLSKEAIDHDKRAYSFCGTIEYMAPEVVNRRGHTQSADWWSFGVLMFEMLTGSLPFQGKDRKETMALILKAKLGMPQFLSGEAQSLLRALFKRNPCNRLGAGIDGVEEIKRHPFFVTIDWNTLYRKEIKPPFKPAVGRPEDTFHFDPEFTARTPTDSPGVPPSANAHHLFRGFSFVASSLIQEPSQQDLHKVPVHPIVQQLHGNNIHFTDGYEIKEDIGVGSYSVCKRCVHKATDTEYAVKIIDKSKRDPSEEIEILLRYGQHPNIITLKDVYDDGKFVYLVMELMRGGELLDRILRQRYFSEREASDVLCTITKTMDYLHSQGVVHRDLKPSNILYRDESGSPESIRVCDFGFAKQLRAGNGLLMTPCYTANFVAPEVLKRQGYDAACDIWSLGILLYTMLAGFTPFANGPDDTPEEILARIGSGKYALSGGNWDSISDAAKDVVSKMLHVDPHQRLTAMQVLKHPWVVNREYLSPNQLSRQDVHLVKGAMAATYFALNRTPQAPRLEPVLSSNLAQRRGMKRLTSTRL
- PROCEDURE SUMMARY: Kinase panel profiling at 1 µmol/L (mobility shift assay, Carna)
- Format: biochemical
- ASSAY SETUP: 1 µmol/L of BTK inhibitor
compounds and their reported Percentage inhibition of kinase enzyme activity
Numbers only here, please. The scale is %.

smiles_input=O=C(c1ccc(Oc2ccccc2)cc1Cl)c1c[nH]c2ncnc(N[C@@H]3CC[C@@H](CO)OC3)c12 experimental_value=19.54

For the compound COc1ccc(F)cc1C(=O)NCc1ccc(-c2nn([C@@H](C)C(F)(F)F)c(N)c2C(N)=O)cc1 , what Percentage inhibition of kinase enzyme activity is on record? 1.65

For the compound CC#CC(=O)N1CCC[C@H]1c1nc(-c2ccc(C(=O)Nc3ccccn3)cc2)c2c(N)nccn12 , what Percentage inhibition of kinase enzyme activity is on record? 1.13

For the compound C=CC(=O)N1CCC[C@@H](n2nc(-c3ccc(Oc4ccccc4)cc3)c3c(N)ncnc32)C1 , what Percentage inhibition of kinase enzyme activity is on record? 8.80

====

molecules and their reported Percentage inhibition of kinase enzyme activity
- TESTED ON: LOK (Homo sapiens)
- Construct: purchased Carna Biosciences
- Sequence (O94804 whole entry): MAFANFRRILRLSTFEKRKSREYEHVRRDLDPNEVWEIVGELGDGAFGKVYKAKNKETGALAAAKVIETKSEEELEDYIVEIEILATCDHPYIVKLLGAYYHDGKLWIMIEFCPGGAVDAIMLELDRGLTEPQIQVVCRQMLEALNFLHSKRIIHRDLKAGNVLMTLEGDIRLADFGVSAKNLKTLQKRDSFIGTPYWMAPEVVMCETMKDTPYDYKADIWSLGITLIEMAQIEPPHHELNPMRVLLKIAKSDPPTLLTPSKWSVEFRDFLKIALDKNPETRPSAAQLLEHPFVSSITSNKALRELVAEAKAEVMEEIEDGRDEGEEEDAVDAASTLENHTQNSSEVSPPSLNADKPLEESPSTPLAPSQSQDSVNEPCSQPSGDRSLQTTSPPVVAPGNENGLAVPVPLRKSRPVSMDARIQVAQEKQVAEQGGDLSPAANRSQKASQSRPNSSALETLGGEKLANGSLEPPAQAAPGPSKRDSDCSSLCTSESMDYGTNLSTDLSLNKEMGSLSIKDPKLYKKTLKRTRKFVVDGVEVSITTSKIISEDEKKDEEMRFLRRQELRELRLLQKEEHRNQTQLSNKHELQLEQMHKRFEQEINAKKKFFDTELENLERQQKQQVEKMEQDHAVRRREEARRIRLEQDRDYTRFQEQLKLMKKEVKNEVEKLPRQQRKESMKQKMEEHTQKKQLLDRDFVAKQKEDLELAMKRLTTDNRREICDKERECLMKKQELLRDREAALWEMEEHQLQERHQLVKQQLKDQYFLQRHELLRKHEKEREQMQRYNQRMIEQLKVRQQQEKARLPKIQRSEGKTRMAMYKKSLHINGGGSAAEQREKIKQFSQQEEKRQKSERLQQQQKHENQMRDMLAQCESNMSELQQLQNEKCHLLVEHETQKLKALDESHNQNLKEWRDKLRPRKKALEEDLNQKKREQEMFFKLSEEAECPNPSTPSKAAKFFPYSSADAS
- PROCEDURE SUMMARY: Kinase panel profiling at 1 µmol/L (mobility shift assay, Carna)
- Assay type: biochemical
- ASSAY SETUP: 1 µmol/L of BTK inhibitor
Numbers only here, please. The scale is %.

Look over these answered cases.
smiles_input=O=C(c1ccc(Oc2ccccc2)cc1Cl)c1c[nH]c2ncnc(N[C@@H]3CC[C@@H](CO)OC3)c12 display_unit=% experimental_value=83.97
smiles_input=CC#CC(=O)N1CCC[C@H]1c1nc(-c2ccc(C(=O)Nc3ccccn3)cc2)c2c(N)nccn12 display_unit=% experimental_value=3.37
smiles_input=COc1ccc(F)cc1C(=O)NCc1ccc(-c2nn([C@@H](C)C(F)(F)F)c(N)c2C(N)=O)cc1 display_unit=% experimental_value=-1.51

The record that follows has no Percentage inhibition of kinase enzyme activity shown yet.
For the molecule C=CC(=O)N1CCC[C@@H](n2nc(-c3ccc(Oc4ccccc4)cc3)c3c(N)ncnc32)C1 , what Percentage inhibition of kinase enzyme activity is on record? 24.15

====

- TESTED ON: QIK (Homo sapiens)
- Construct: purchased Carna Biosciences
- Sequence (Q9H0K1 whole entry): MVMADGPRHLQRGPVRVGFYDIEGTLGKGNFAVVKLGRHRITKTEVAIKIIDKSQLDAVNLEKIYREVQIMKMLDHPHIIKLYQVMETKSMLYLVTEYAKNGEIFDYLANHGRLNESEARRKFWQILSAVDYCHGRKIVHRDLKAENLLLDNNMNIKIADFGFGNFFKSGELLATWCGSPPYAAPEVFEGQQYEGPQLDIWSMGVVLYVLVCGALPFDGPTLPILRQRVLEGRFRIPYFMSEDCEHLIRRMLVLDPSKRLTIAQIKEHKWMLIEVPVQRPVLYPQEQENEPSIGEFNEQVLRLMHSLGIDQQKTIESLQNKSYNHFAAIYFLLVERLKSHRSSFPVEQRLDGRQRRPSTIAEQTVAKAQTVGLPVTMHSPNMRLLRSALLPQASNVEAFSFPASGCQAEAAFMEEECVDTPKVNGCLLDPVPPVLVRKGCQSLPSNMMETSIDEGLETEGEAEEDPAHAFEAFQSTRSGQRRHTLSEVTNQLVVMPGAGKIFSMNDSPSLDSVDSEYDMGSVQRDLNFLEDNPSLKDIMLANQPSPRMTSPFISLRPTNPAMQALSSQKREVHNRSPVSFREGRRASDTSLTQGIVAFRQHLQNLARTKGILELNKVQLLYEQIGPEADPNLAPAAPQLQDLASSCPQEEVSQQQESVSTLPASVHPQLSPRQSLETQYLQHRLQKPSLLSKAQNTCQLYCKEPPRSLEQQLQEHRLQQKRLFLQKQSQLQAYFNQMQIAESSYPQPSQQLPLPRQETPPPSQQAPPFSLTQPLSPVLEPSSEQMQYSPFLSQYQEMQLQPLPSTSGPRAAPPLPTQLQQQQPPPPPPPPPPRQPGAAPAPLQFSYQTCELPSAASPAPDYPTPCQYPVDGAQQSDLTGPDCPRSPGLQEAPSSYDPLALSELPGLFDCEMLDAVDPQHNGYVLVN
- PROCEDURE SUMMARY: Kinase panel profiling at 1 µmol/L (mobility shift assay, Carna)
- Type: biochemical
- ASSAY SETUP: 1 µmol/L of BTK inhibitor
QUANTITY KIND: Percentage inhibition of kinase enzyme activity (%)
Numbers only here, please. The scale is %.

Look over these answered cases.
molecule="O=C(c1ccc(Oc2ccccc2)cc1Cl)c1c[nH]c2ncnc(N[C@@H]3CC[C@@H](CO)OC3)c12 [nemtabrutinib]" display_unit=% experimental_value=81.76
molecule="CC#CC(=O)N1CCC[C@H]1c1nc(-c2ccc(C(=O)Nc3ccccn3)cc2)c2c(N)nccn12 [acalabrutinib]" display_unit=% experimental_value=-0.22
molecule="COc1ccc(F)cc1C(=O)NCc1ccc(-c2nn([C@@H](C)C(F)(F)F)c(N)c2C(N)=O)cc1 [pirtobrutinib]" display_unit=% experimental_value=8.30

The record that follows has no Percentage inhibition of kinase enzyme activity shown yet.
For the molecule C=CC(=O)N1CCC[C@@H](n2nc(-c3ccc(Oc4ccccc4)cc3)c3c(N)ncnc32)C1 [ibrutinib] , what Percentage inhibition of kinase enzyme activity is on record? 4.70

====

compounds and their reported Percentage inhibition of kinase enzyme activity
- TESTED ON: PKCι (Homo sapiens, UniProt P41743)
- Construct: purchased Carna Biosciences
- Sequence (P41743 whole entry): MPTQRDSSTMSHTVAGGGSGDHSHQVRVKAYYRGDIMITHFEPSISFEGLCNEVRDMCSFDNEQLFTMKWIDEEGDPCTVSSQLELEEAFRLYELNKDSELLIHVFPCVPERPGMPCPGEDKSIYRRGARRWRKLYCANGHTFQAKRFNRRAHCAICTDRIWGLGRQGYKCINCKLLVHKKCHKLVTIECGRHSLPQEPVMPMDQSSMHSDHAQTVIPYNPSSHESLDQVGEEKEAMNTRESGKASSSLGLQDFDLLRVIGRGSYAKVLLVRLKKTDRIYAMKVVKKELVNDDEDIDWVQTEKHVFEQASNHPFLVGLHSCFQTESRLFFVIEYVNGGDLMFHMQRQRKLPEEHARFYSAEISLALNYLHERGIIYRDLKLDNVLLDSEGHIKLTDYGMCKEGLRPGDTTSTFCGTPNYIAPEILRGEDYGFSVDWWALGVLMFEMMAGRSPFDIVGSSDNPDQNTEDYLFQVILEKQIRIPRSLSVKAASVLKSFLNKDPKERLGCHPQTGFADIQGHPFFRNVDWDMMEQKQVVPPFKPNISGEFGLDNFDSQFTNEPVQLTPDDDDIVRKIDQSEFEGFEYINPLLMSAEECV
- PROCEDURE SUMMARY: Kinase panel profiling at 1 µmol/L (mobility shift assay, Carna)
- Type: biochemical
- ASSAY SETUP: 1 µmol/L of BTK inhibitor
Numbers only here, please. The scale is %.

Look over these answered cases.
smiles_input=COc1ccc(F)cc1C(=O)NCc1ccc(-c2nn([C@@H](C)C(F)(F)F)c(N)c2C(N)=O)cc1 tested_on="PKCι (Homo sapiens, UniProt P41743)" display_unit=% experimental_value=0.51
smiles_input=C=CC(=O)N1CCC[C@@H](n2nc(-c3ccc(Oc4ccccc4)cc3)c3c(N)ncnc32)C1 tested_on="PKCι (Homo sapiens, UniProt P41743)" display_unit=% experimental_value=2.23
smiles_input=CC#CC(=O)N1CCC[C@H]1c1nc(-c2ccc(C(=O)Nc3ccccn3)cc2)c2c(N)nccn12 tested_on="PKCι (Homo sapiens, UniProt P41743)" display_unit=% experimental_value=-8.38

Find the measured Percentage inhibition of kinase enzyme activity: item O=C(c1ccc(Oc2ccccc2)cc1Cl)c1c[nH]c2ncnc(N[C@@H]3CC[C@@H](CO)OC3)c12 , target or system PKCι (Homo sapiens, UniProt P41743). -1.29

====

- TESTED ON: PKCζ (Homo sapiens, UniProt Q05513)
- Construct: purchased Carna Biosciences
- Sequence (Q05513 whole entry): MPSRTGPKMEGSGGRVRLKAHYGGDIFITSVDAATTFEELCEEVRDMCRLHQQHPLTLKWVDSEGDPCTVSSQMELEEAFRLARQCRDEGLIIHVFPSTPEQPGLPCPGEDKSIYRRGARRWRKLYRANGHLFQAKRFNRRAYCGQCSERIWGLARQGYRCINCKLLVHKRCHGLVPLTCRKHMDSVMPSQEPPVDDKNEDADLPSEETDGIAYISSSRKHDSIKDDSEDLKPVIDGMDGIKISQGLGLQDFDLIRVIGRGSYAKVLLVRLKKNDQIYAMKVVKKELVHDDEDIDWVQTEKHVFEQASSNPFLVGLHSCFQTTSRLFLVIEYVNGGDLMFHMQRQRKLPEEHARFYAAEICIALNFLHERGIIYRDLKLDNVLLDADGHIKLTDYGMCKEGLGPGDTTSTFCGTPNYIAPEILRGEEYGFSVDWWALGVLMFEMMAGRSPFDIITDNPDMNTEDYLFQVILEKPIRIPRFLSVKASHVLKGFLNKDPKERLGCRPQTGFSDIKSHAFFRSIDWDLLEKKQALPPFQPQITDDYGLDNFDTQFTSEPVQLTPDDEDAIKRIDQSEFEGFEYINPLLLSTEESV
- PROCEDURE SUMMARY: Kinase panel profiling at 1 µmol/L (mobility shift assay, Carna)
- Type: biochemical
- ASSAY SETUP: 1 µmol/L of BTK inhibitor
QUANTITY KIND: Percentage inhibition of kinase enzyme activity (%)
Numbers only here, please. The scale is %.

Look over these answered cases.
compound="C=CC(=O)N1CCC[C@@H](n2nc(-c3ccc(Oc4ccccc4)cc3)c3c(N)ncnc32)C1 [ibrutinib]" tested_on="PKCζ (Homo sapiens, UniProt Q05513)" experimental_value=10.28
compound="CC#CC(=O)N1CCC[C@H]1c1nc(-c2ccc(C(=O)Nc3ccccn3)cc2)c2c(N)nccn12 [acalabrutinib]" tested_on="PKCζ (Homo sapiens, UniProt Q05513)" experimental_value=-5.44
compound="O=C(c1ccc(Oc2ccccc2)cc1Cl)c1c[nH]c2ncnc(N[C@@H]3CC[C@@H](CO)OC3)c12 [nemtabrutinib]" tested_on="PKCζ (Homo sapiens, UniProt Q05513)" experimental_value=-0.78

The record that follows has no Percentage inhibition of kinase enzyme activity shown yet.
For the compound COc1ccc(F)cc1C(=O)NCc1ccc(-c2nn([C@@H](C)C(F)(F)F)c(N)c2C(N)=O)cc1 [pirtobrutinib] , what Percentage inhibition of kinase enzyme activity is on record? -3.38

====

- TESTED ON: SLK (Homo sapiens)
- Construct: purchased Carna Biosciences
- PROCEDURE SUMMARY: Kinase panel profiling at 1 µmol/L (mobility shift assay, Carna)
- Assay type: biochemical
- ASSAY SETUP: 1 µmol/L of BTK inhibitor
QUANTITY KIND: Percentage inhibition of kinase enzyme activity (%)
Numbers only here, please. The scale is %.

Look over these answered cases.
smiles_input=CC#CC(=O)N1CCC[C@H]1c1nc(-c2ccc(C(=O)Nc3ccccn3)cc2)c2c(N)nccn12 display_unit=% experimental_value=1.61
smiles_input=C=CC(=O)N1CCC[C@@H](n2nc(-c3ccc(Oc4ccccc4)cc3)c3c(N)ncnc32)C1 display_unit=% experimental_value=12.11
smiles_input=O=C(c1ccc(Oc2ccccc2)cc1Cl)c1c[nH]c2ncnc(N[C@@H]3CC[C@@H](CO)OC3)c12 display_unit=% experimental_value=52.74

The record that follows has no Percentage inhibition of kinase enzyme activity shown yet.
Find the measured Percentage inhibition of kinase enzyme activity: item COc1ccc(F)cc1C(=O)NCc1ccc(-c2nn([C@@H](C)C(F)(F)F)c(N)c2C(N)=O)cc1 , target or system SLK (Homo sapiens). -0.40

====

- TESTED ON: LTK (Homo sapiens, UniProt P29376)
- Construct: purchased Carna Biosciences
- Sequence (P29376 17-864): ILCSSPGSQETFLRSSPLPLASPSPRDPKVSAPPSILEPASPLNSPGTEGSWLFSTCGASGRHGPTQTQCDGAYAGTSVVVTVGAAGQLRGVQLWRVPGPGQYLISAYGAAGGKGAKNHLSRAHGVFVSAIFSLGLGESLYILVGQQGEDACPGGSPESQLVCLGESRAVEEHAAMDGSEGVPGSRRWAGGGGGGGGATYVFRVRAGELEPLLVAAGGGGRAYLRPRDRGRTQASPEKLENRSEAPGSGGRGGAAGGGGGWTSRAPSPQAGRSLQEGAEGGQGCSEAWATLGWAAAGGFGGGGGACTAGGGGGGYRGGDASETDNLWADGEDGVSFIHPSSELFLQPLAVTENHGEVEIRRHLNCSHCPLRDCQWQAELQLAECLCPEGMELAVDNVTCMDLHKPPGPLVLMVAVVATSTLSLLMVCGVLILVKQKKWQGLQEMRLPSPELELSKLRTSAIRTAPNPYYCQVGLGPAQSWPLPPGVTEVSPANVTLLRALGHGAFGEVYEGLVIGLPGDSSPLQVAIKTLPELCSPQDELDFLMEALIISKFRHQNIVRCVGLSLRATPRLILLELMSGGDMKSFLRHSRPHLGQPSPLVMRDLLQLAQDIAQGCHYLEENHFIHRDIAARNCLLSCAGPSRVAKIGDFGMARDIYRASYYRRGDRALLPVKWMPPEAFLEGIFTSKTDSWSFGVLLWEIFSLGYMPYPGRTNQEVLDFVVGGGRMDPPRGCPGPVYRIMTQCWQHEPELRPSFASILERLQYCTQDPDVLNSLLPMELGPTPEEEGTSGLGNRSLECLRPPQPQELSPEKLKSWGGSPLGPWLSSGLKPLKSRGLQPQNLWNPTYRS
- PROCEDURE SUMMARY: Kinase panel profiling at 1 µmol/L (mobility shift assay, Carna)
- Format: biochemical
- ASSAY SETUP: 1 µmol/L of BTK inhibitor
QUANTITY KIND: Percentage inhibition of kinase enzyme activity

Look over these answered cases.
compound="COc1ccc(F)cc1C(=O)NCc1ccc(-c2nn([C@@H](C)C(F)(F)F)c(N)c2C(N)=O)cc1 [pirtobrutinib]" experimental_value=-0.40%
compound="C=CC(=O)N1CCC[C@@H](n2nc(-c3ccc(Oc4ccccc4)cc3)c3c(N)ncnc32)C1 [ibrutinib]" experimental_value=2.76%
compound="C=CC(=O)N1CCC([C@@H]2CCNc3c(C(N)=O)c(-c4ccc(Oc5ccccc5)cc4)nn32)CC1 [zanubrutinib]" experimental_value=55.84%

For the compound CC#CC(=O)N1CCC[C@H]1c1nc(-c2ccc(C(=O)Nc3ccccn3)cc2)c2c(N)nccn12 [acalabrutinib] , what Percentage inhibition of kinase enzyme activity is on record? 10.06%

====

- System: HL-60
- PROCEDURE SUMMARY: Cell viability assay (ATPlite)
- Assay type: cell-based
- ASSAY SETUP: Homo sapiens; HL-60 cell line, 72 hours incubation
- Method: Intracellular ATP content was used as an indirect readout of cell number using the ATPlite 1Step bioluminescence assay (Revvity, Groningen, the Netherlands). […] After 24 hours of incubation, the starting cell number was determined by adding ATPlite to each well of a control plate and recording luminescence on an Envision multimode reader (Revvity, Waltham, MA, USA) ([4]). […] After incubation for an additional 72 hours, the ATP content was measured in each well using ATPlite. […]
QUANTITY KIND: pIC50
In textbook form, pIC50 equals minus log to base ten of the concentration in mol/L.

For the molecule O=C(c1ccc(Oc2ccccc2)cc1Cl)c1c[nH]c2ncnc(N[C@@H]3CC[C@@H](CO)OC3)c12 , what pIC50 is on record? 5.66
